Attribution: IntAct's records for PubMed 29039417

B1: BBSome complex member BBS4 (Homo sapiens), Q96RK4 (parent)
chain: MAEERVATRTQFPVSTESQKPRQKKAPEFPILEKQNWLIHLHYIRKDYEACKAVIKEQLQETQGLCEYAIYVQALIFRLEGNIQESLELFQTCAVLSPQSADNLKQVARSLFLLGKHKAAIEVYNEAAKLNQKDWEISHNLGVCYIYLKQFNKAQDQLHNALNLNRHDLTYIMLGKIHLLEGDLDKAIEVYKKAVEFSPENTELLTTLGLLYLQLGIYQKAFEHLGNALTYDPTNYKAILAAGSMMQTHGDFDVALTKYRVVACAVPESPPLWNNIGMCFFGKKKYVAAISCLKRANYLAPFDWKILYNLGLVHLTMQQYASAFHFLSAAINFQPKMGELYMLLAVALTNLEDIENAKRAYAEAVHLDKCNPLVNLNYAVLLYNQGEKKNALAQYQEMEKKVSLLKDNSSLEFDSEMVEMAQKLGAALQVGEALVWTKPVKDPKSKHQTTSTSKPASFQQPLGSNQALGQAMSSAAAYRTLPSGAGGTSQFTKPPSLPLEPEPAVESSPTETSEQIREK
partner: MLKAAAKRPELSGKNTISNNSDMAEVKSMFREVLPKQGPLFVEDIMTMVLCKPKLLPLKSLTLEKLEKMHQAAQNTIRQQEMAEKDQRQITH

# Variants of: B1
# EXPERIMENTAL_CONTEXT: with bbip1_human BBIP1, A8MTZ0
REPORTED_METRIC: effect of a mutation on the interaction

SEQUENCE_VARIANT | OBSERVED_RESULT
M342E | with no effect
P455A | with no effect
A364E | with no effect
S496K | with no effect
K423E | with no effect

Note effect of a mutation on the interaction for the variant shown: S489A
with no effect

Note effect of a mutation on the interaction for the variant shown: T437K
with no effect

Note effect of a mutation on the interaction for the variant shown: N465A
with no effect
